Source of measurements: patent US20100068197A1

- Test system: P388/ADR cell lines (overexpress the multidrug resistance pump MDR-1)
- experiment: Multidrug resistant cell assay, cell viability by ATP-lite
- Assay type: cell-based, murine
- cond: Mus musculus, 72 h, multidrug resistant cells overexpressing MDR-1
measured attribute: IC50 (nM)

Example results:
compound | target system | IC50 [nM]
CCOC(=O)C(Nc1nc(N(C)c2ccc(OC)cc2)c2ccccc2n1)C(C)C (centres unmarked) [Example 32] | P388/ADR cell lines (overexpress the multidrug resistance pump MDR-1) | 300
COc1ccc(N(C)c2nc(NCCOP(=O)(O)OC(C)(C)C)nc3ccccc23)cc1 [Example 12] | P388/ADR cell lines (overexpress the multidrug resistance pump MDR-1) | 7800
COCCOCCOc1nc(N(C)c2ccc(OC)cc2)c2ccccc2n1 [Example 1] | P388/ADR cell lines (overexpress the multidrug resistance pump MDR-1) | 580
COc1ccc(N(C)c2nc(NCCOP(=O)(OC(C)(C)C)OC(C)(C)C)nc3ccccc23)cc1 [Example 10] | P388/ADR cell lines (overexpress the multidrug resistance pump MDR-1) | 380
COc1ccc(N(C)c2nc(NCCNC(N)=O)nc3ccccc23)cc1 [Example 40] | P388/ADR cell lines (overexpress the multidrug resistance pump MDR-1) | 600
COc1ccc(N(C)c2nc(NCCOC(=O)[C@@H](N)CC(N)=O)nc3ccccc23)cc1 [Example 33] | P388/ADR cell lines (overexpress the multidrug resistance pump MDR-1) | 18
COc1ccc(N(C)c2nc(NCCNC(=O)CN)nc3ccccc23)cc1 [Example 41] | P388/ADR cell lines (overexpress the multidrug resistance pump MDR-1) | 5300
COc1ccc(N(C)c2nc(NCCNC(=O)CNC(=O)OC(C)(C)C)nc3ccccc23)cc1 [Example 31] | P388/ADR cell lines (overexpress the multidrug resistance pump MDR-1) | 1100
COCCOCCOC(=O)OCCNc1nc(N(C)c2ccc(OC)cc2)c2ccccc2n1 [Example 8] | P388/ADR cell lines (overexpress the multidrug resistance pump MDR-1) | 30
COc1ccc(N(C)c2nc(NCCNC(=O)OCc3ccccc3)nc3ccc(OC)cc23)cc1 [Example 17] | P388/ADR cell lines (overexpress the multidrug resistance pump MDR-1) | 8500

A: COc1ccc(N(C)c2nc(N3CCNCC3)nc3ccccc23)cc1 [Example 9]
B: CNC(=O)NCCNc1nc(N(C)c2ccc(OC)cc2)c2cc(OC)ccc2n1 [Example 37]
Please indicate which entry, A or B , has the lower recorded IC50 value. # reply format: chosen label
A
(A: 3200 nM, B: 6600 nM)
